Target: cloned human µ opioid receptor (human), P35372
Sequence (P35372 whole entry): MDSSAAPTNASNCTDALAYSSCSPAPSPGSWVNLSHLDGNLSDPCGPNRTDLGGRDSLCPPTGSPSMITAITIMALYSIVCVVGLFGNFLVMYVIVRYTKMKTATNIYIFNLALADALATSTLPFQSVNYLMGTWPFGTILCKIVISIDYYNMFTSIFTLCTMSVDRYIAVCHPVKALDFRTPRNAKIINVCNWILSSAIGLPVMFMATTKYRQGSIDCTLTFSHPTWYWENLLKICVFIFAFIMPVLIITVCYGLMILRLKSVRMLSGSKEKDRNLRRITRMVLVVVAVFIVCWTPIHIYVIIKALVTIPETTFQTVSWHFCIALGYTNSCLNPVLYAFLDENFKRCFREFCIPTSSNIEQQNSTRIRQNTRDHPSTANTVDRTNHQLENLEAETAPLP
Experiment: saturation binding, Scatchard analysis, COS-7 membranes
assay-metric: Kd (nM)
Lab book: enter the figure in nM, no units written.

Assign Kd to the following record: YAGFG (modifications not checked) [[D-Ala2,MePhe4,Gly-ol5]enkephalin (DAMGO)] 1
